assay: Solubility assay (0.1M phosphate buffer, pH 7.4, 24 hours); assay type: physicochemical; conditions: 21 °C, aqueous buffer, kinetic from dmso stock, 100 μM from DMSO stock in 0.1M phosphate buffer, pH 7.4, room temperature, upper limit 100 μM, LOQ 0.1 μM
Experimental endpoint: solubility at 24 h (µM)

Study these solved cases before continuing.
CC(C)C[C@H](CO)Nc1nc(SCc2cccc(F)c2F)nc2[nH]c(=O)cnc12 [drawing 17 X = S, reference compound] ... 1.3
CC(C)CC(CO)Nc1nc([S+]([O-])Cc2cccc(F)c2F)nc2[nH]c(=O)cnc12 (centres unmarked) ... 44
COc1cccc(COc2nc(N[C@@H](CO)CC(C)C)c3sc(N)nc3n2)c1 ... 72.9
CC(C)C[C@H](CO)Nc1nc(OCc2ccccc2)[nH]c2nc(=O)sc1-2 ... 29

a = CC(C)C[C@H](CO)Nc1nc(SCc2ccccc2)nc2[nH]c(=O)sc12 [drawing 18 X = S, reference compound]
b = CC(C)C[C@H](CO)Nc1nc(SCc2cccc(F)c2F)nc2[nH]c(=O)sc12 [drawing 20 X = S, reference compound]
Data request: For the pair a and b , which entry has the numerically smaller recorded solubility at 24 h? Field: selected label. Fill in the label of the entry you choose.
Data returned: a
(a: 1.3 µM, b: 2.1 µM)
